- target desc: Axl (Homo sapiens)
- Sequence (P30530 26-894, species assumed): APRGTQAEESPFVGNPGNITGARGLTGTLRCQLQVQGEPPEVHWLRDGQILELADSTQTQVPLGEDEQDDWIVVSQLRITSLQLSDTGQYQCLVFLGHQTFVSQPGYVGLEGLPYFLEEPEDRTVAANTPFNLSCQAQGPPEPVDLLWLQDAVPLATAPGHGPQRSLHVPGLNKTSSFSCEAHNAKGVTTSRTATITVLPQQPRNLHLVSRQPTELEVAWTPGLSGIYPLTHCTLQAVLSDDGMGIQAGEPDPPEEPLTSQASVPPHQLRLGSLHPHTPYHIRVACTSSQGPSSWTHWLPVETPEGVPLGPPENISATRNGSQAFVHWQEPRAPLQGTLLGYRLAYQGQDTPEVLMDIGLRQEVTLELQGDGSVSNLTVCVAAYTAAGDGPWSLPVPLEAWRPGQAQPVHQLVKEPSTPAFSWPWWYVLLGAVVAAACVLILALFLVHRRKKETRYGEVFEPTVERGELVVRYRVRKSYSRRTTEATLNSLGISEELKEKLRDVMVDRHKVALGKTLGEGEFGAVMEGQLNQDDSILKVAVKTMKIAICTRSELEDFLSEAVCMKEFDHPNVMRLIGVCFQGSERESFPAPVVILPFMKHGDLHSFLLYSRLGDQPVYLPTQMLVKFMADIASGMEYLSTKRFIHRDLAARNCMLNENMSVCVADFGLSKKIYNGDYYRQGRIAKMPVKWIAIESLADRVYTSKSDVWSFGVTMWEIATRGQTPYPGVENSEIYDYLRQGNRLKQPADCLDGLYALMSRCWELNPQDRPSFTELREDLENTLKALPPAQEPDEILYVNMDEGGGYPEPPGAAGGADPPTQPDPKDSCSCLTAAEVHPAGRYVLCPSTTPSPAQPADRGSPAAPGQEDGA
- measurement description: Microfluidic capillary electrophoresis
- Type: biochemical
observation type: IC50
Report field: quantity (unit follows the number).

Recorded IC50, per entry:
>  <smiles structure>
CCCCNc1ncc2c(-c3ccc(S(=O)(=O)NC)cc3)nn(C[C@H]3CC[C@H](O)CC3)c2n1

>  <IC50>
0.14 µM

$$$$
>  <smiles structure>
CCCCNc1ncc2c(-c3ccc(NS(C)(=O)=O)cc3)nn([C@H]3CC[C@H](O)CC3)c2n1

>  <IC50>
0.11 µM

$$$$
>  <smiles structure>
CCCCNc1ncc2c(-c3ccc(S(=O)(=O)NC4CCCC4)cc3)nn([C@H]3CC[C@H](O)CC3)c2n1

>  <IC50>
0.067 µM

$$$$

Could you now consider this next molecule?
Query: May I ask what IC50 has been recorded for "CCCCNc1ncc2c(-c3ccc(S(=O)(=O)NC4CCOCC4)cc3)nn([C@H]3CC[C@H](O)CC3)c2n1" ?
Result: 0.069 µM
